Biological target: T1, recombinant dog Aggrecan G1-IGD-G2 (dog, UniProt Q28343 20-693, limits assumed)
T1 construct: also called Dog G1-IGD-G2
Experiment: ELISA on recombinant G1-IGD-G2
pEC50: −log10 of the molar value.

{"binder": "C01010097 (608A05-ALB26) (VHH, not shown: small tags and cut ends) VHH: DVQLVESGGGLVQPGGSLRLSCAASGRTFSTYTMGWFRQAPGKEREFVAAISWSGGTTYYADSVKGRFTISRDNSKNTVYLQMNSLRPEDTAVYYCAARPRYYYYSLYSYDYWGQGTLVTVSS", "pEC50": 7.60}
{"binder": "C01010109 (ALB26-608A05-608A05) (VHH, not shown: small tags and cut ends) VHH 1: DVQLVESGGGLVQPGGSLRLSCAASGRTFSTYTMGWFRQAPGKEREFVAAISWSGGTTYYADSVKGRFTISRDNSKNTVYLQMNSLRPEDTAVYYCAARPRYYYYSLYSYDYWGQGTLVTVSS VHH 2: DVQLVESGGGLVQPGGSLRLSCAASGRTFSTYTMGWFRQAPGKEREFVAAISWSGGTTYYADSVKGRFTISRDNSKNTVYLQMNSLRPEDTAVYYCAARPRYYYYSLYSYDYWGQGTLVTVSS", "pEC50": 9.48}
{"binder": "C01010106 (ALB26-604F02-604F02) (VHH, not shown: large carriers; small tags and cut ends) VHH 1: DVQLVESGGGLVQPGGSLRLSCAASGRTFSSYTMGWFRQAPGKEREFVAAISWSGGRTYYADSVKGRFTISRDNSKNTVYLQMNSLRPEDTAVYYCAAYRRRRASSNRGLWDYWGQGTLVTVSS VHH 2: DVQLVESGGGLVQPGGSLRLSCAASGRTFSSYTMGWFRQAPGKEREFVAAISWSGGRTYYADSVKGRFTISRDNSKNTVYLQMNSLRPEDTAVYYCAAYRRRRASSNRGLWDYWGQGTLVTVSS", "pEC50": 10.01}
{"binder": "C01010054 (114F08-ALB26) (VHH, not shown: small tags and cut ends, also called C010100054) VHH: EVQLVESGGGLVQAGGSLRLSCAASGSTFIINVVRWYRRTPGKQRELVATISSGGNANYVDSVRGRFSISRDGAKNAVDLQMNGLKPEDTAVYYCNVPTTHYGGVYYGPYWGQGTQVTVSS", "pEC50": 8.52}
{"binder": "C01010060 (606A07-ALB26) (VHH, not shown: small tags and cut ends) VHH: DVQLVESGGGLVQPGGSLRLSCVASGRTFSIYGMGWFRQAPGKEREFVAAINGGSRTYYADSVKGRFTISRDNSKNTVYLQMNSLRPEDTAVYYCAADRSGYGTSLDWWYDYWGQGTLVTVSS", "pEC50": 8.16}
